All figures here come from patent US20260285816A1.

So I've got a bunch of compounds here, and I need their pIC50 values.
System: UM-UC-3 cells
experimentalDetails: CCK-8 anti-proliferative assay, UM-UC-3
Format: cell-based, human
condition: Homo sapiens, UMUC3; Table 6; co-incubated 48 h; read-out: Anti-proliferative activity (IC50 ± standard deviation) UM-UC-3
Please keep in mind that pIC50 is minus log10 of the molar concentration; only the number is needed.

Consider the compound CCc1cccc(CC)c1NC(=O)Nc1cccc(CNc2ncnc3cc(OC)c(OCCCCCCN4CCN(CCN5CCOCC5)CC4)cc23)c1 [Compound 8-1h] . State its measured pIC50.
5.06

Consider the compound COc1cc2ncnc(NCc3cccc(NC(=O)Nc4ccc(F)c(C(F)(F)F)c4)c3)c2cc1OCCCCCCN1CCN(CCN2CCOCC2)CC1 [Compound 8-1q] . State its measured pIC50.
5.20

Consider the compound CCc1ccccc1NC(=O)Nc1cccc(CNc2ncnc3cc(OC)c(OCCCCCCN4CCN(CCN5CCOCC5)CC4)cc23)c1 [Compound 8-1g] . State its measured pIC50.
4.58
